System: Wild type
procedure-summary: S. aureus survival, RN4220 and DeltatarO strains – OD600, teichoic acid synthesis inhibitors, primary screen (AID 463173)
assay-setup: S. aureus RN4220 wild type/DeltatarO growth, OD600, 18 h, stronger effect = lower value, screened at 18.75 µg/mL (by protocol)
Hit rate of the full screen: of about 52,000 compounds, about 1,700 (3.3%) were called active. The entries come from a sample that favours actives as a whole.
The label is label 1 for survival below 90% and label 0 for survival equal to or exceeding 90%.

INSERT INTO assay_data (compound, group_label) VALUES
  ('COc1cc(NC(=O)Cn2cc(S(=O)(=O)c3ccccc3)c(=O)c3ccccc32)cc(OC)c1', 'label 1'),
  ('CCCSCCCNC(=O)C1CCN(c2nc3ccccc3nc2C(F)(F)F)CC1', 'label 1'),
  ('CCN(CC)S(=O)(=O)c1ccc2c(c1)N(CC(=O)Nc1c(C)cccc1C)C(=O)C1CCCN21 (stereo unspecified)', 'label 1'),
  ('CS(=O)(=O)Nc1ccc2c(c1)OCO2', 'label 0'),
  ('Cc1ccccc1CCNC(=O)C1CCN(c2nc3ccccc3nc2C(F)(F)F)CC1', 'label 1'),
  ('Cn1ncc(Cl)c1C(=O)O', 'label 0'),
  ('Cc1cccc(N2CCN(S(=O)(=O)c3ccc4c(c3)CCCN4C(=O)C3CCC3)CC2)c1C', 'label 1'),
  ('O=C(NCCc1ccccc1Cl)C1CCN(c2nc3ccccc3nc2C(F)(F)F)CC1', 'label 1');

Okay, now this compound:
Problem: I wonder whether "CCNC(=O)C1CCN(c2nc3ccccc3nc2C(F)(F)F)CC1" has survival below 90%. Can you tell?
Solution: label 0

----------
Tested on: Wild type
procedure-summary: S. aureus survival, RN4220 and DeltatarO strains – OD600, teichoic acid synthesis inhibitors, primary screen (AID 463173)
assay-setup: S. aureus RN4220 wild type/DeltatarO growth, OD600, 18 h, stronger effect = lower value, screened at 18.75 µg/mL (by protocol)
Screen size: about 52,000 compounds; about 1,700 (3.3%) were called active. Many of the other results were omitted from the sample, so actives are more common in it than they were.
Classes based on survival: lower level (below 70%), middle level (70% to below 80%), upper level (80% or more)

Answered examples (3):
INSERT INTO assay_data (compound, group_label) VALUES
  ('CNC(=O)Nc1ccc2nc(C)sc2c1', 'upper level'),
  ('COc1ccc(NC(=O)c2c(NC(=O)COc3ccccc3)sc3c2CCC(C(C)(C)C)C3)cc1 (stereo unspecified)', 'middle level'),
  ('CC(=O)c1ccc(N2CCN(C(=O)CCS(=O)(=O)c3ccc4c(c3)oc(=O)n4C)CC2)cc1', 'upper level');

Problem: Which survival band matches COc1ccc(C(CC(=O)Nc2ccc(C)c(C)c2)N2Cc3ccccc3C2=O)cc1OC (stereo unspecified) ?
Solution: lower level

Problem: Which survival band matches "COc1ccc2c(c1)CCc1c(C(=O)Nc3c(C)nn(Cc4ccccc4)c3C)noc1-2" ?
Solution: upper level

----------
Test system: Wild type
procedure-summary: S. aureus survival, RN4220 and DeltatarO strains – OD600, teichoic acid synthesis inhibitors, primary screen (AID 463173)
assay-setup: S. aureus RN4220 wild type/DeltatarO growth, OD600, 18 h, screened at 18.75 µg/mL (by protocol)
The campaign covered roughly 52,000 compounds. About 1,700 (3.3%) were called active. No stated cut-off is given here; in the data, active means survival mostly below about 52% (no sharp cut-off); inactive means mostly above about 56%. The sample holds actives, similar compounds and a random draw of the others, so the mix is not that of the screen.
Could you please pick one outcome from this set? active, inactive

Answered examples (3):
INSERT INTO results (compound, group_label) VALUES
  ('Cc1ccc(-n2ncc3c(Nc4ccc5c(c4)OCCO5)ncnc32)cc1C', 'inactive'),
  ('CC(=O)N1CCc2c(sc3c2c(=O)n(-c2cc(Cl)ccc2C)c(=O)n3C)C1', 'inactive'),
  ('Cc1ccc(C)c(N2CCN(C(=O)C3CCN(S(=O)(=O)c4cn(C)cn4)CC3)CC2)c1', 'inactive');

Problem: Hello, I am checking results. What call was entered for "CC1CCN(C(=O)Cn2c(SCC(=O)Nc3ccc(F)cc3)nc3ccccc32)CC1" ?
Solution: inactive

Problem: Hello, I am checking results. What call was entered for "Cc1ccc(N(C)C(=O)C2CCN(S(=O)(=O)c3cn(C)cn3)CC2)cc1" ?
Solution: active

Problem: Hello, I am checking results. What call was entered for "Cc1ccc(OC(=O)c2cc(-c3ccc4c(c3)OCCO4)on2)cc1C" ?
Solution: active

Problem: Hello, I am checking results. What call was entered for "O=C(Nc1ccccc1C(F)(F)F)C1CCN(S(=O)(=O)c2ccccc2)CC1" ?
Solution: inactive

Problem: Hello, I am checking results. What call was entered for "COc1ccc(OC)c(CNC(=O)C2CCN(S(=O)(=O)c3cn(C)cn3)CC2)c1" ?
Solution: inactive

Problem: Hello, I am checking results. What call was entered for "O=C(Oc1ccc(Cl)cc1)c1cc(-c2ccc3c(c2)OCCO3)on1" ?
Solution: inactive

Problem: Hello, I am checking results. What call was entered for CCOc1ccccc1NC(=O)N1CCc2c(sc3c2CCCC3)C1c1ccccc1 (stereo not given) ?
Solution: inactive

Problem: Hello, I am checking results. What call was entered for "COc1ccc(OC(=O)c2cc(-c3ccc4c(c3)OCCO4)on2)cc1" ?
Solution: inactive

Problem: Hello, I am checking results. What call was entered for "Cc1cc(C)cc(NC(=O)C2CCN(S(=O)(=O)c3cn(C)cn3)CC2)c1" ?
Solution: inactive

Problem: Hello, I am checking results. What call was entered for "Cn1cnc(S(=O)(=O)N2CCC(C(=O)NCc3ccccc3Cl)CC2)c1" ?
Solution: inactive

Problem: Hello, I am checking results. What call was entered for "CC1CCN(C(=O)Cn2cc(SCC(=O)NCc3ccccc3)c3ccccc32)CC1" ?
Solution: inactive

Problem: Hello, I am checking results. What call was entered for "N#Cc1ccc(OC(=O)c2cc(-c3ccc4c(c3)OCCO4)on2)cc1" ?
Solution: inactive

Problem: Hello, I am checking results. What call was entered for "Cc1ccc(NC(=O)Cn2c(=O)n(-c3ccccc3)c(=O)c3ccc(C(=O)NCc4ccc5c(c4)OCO5)cc32)c(C)c1" ?
Solution: inactive

Problem: Hello, I am checking results. What call was entered for "CCCC(=O)Nc1cc(-c2nnc3c4ccccc4c(C)nn23)ccc1C" ?
Solution: inactive

Problem: Hello, I am checking results. What call was entered for "Cc1cc(C)c(/C=C/c2onc(C)c2S(=O)(=O)N2CCC(C(=O)NCc3ccccc3Cl)CC2)c(C)c1" ?
Solution: inactive

Problem: Hello, I am checking results. What call was entered for "Cc1cc(OC(=O)c2cc(-c3ccc4c(c3)OCCO4)on2)ccc1Cl" ?
Solution: active

Problem: Hello, I am checking results. What call was entered for "CC(C)c1ccc(OC(=O)c2cc(-c3ccc4c(c3)OCCO4)on2)cc1" ?
Solution: inactive
